# method-notes: qHTS assay to identify small molecule antagonists of the glucocorticoid receptor (GR) signaling pathway - cell viability counter screen (AID 720693); further: nearly all actives have a fitted effect of over 55% in size
# particulars: GR-bla HeLa viability, CellTiter-Glo luminescence, 18 h, with 5 nM dexamethasone present; series mostly up to 58.5 µM
Results filed as inconclusive are left out. Active and inactive are the calls of the source. The call rests on the fitted dose curve; in most records, active means well fitted cell-killing curve with a large enough effect in the repeat runs; inconclusive means weak or mixed curves, or effect the other way; inactive means no such curve, though single readings can be large or run the other way.
Outcomes: active, inactive

{"columns": ["compound", "discrete-label"],
 "data": [
  ["CCCCCCCCCCC[C@@H](C[C@@H]1OC(=O)[C@H]1CCCCCC)OC(=O)[C@H](CC(C)C)NC=O", "inactive"],
  ["ClCCl", "inactive"],
  ["Cc1cc(-c2ccc(N=Nc3cc(S(=O)(=O)O)c4ccccc4c3N)c(C)c2)ccc1N=Nc1cc(S(=O)(=O)O)c2ccccc2c1N", "inactive"],
  ["O=C(O)CCN(C1(C(=O)NO)CCCC1)S(=O)(=O)c1ccc(Oc2ccc(F)cc2)cc1", "inactive"],
  ["CCCCCCCCCCCCOC(=O)c1ccc(O)cc1", "active"],
  ["CC(CO)Oc1ccccc1 (stereo unspecified)", "inactive"],
  ["O=C1CCCCCCCCCCCCCCCO1", "inactive"],
  ["CCC(C)n1ncn(-c2ccc(N3CCN(c4ccc(OC[C@H]5CO[C@](Cn6cncn6)(c6ccc(Cl)cc6Cl)O5)cc4)CC3)cc2)c1=O (stereo partly specified)", "inactive"],
  ["CCCCCCCCCCCC(=O)OCC(C)OC(=O)CCCCC(=O)O (stereo unspecified)", "inactive"],
  ["C=C(CC)C(=O)c1ccc(OCC(=O)O)c(Cl)c1Cl", "inactive"],
  ["CC(=O)Oc1cc2c(s1)CCN(C(C(=O)C1CC1)c1ccccc1F)C2 (stereo unspecified)", "inactive"]
]}

---

# method-notes: qHTS assay to identify small molecule antagonists of the estrogen receptor alpha (ER-alpha) signaling pathway using the BG1 cell line - cell viability counter screen (AID 743081);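 further: compound given together with 17beta-estradiol as the ER stimulus; nearly all actives have a fitted effect of over 45% in size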
# particulars: BG1Luc4E2 viability, CellTiter-Fluor, 22 h; series mostly up to 70.3 µM
Records with an inconclusive call do not appear. Calls of active or inactive are those of the source. Calls come from the whole dose curve; as a rule, active = well fitted cell-killing curve with a large enough effect in the repeat runs; inconclusive = weak or mixed curves, or effect the other way; inactive = flat fitted curve, though single readings scatter.
Labels: active, inactive

{"columns": ["molecule", "discrete-label"],
 "data": [
  ["CCn1c2ccccc2c2cc([N+](=O)[O-])ccc21", "inactive"],
  ["NC(=S)NC(N)=S", "inactive"],
  ["C1CCC(SSC2CCCCC2)CC1", "inactive"],
  ["O=C1NC(=O)[C@@H]2CC=CC[C@H]12", "inactive"],
  ["OC1CCCc2ccccc21 (stereo not given)", "inactive"],
  ["COc1cc(S(=O)(=O)O)c(C)cc1N=Nc1c(O)ccc2cc(S(=O)(=O)O)ccc12", "active"],
  ["CCC(=O)C(=O)CC", "inactive"],
  ["CCc1cccc(CC)c1NC(=O)CN(CC(=O)O)CC(=O)O", "inactive"],
  ["CCCCCCCC/C=C\\CCCCCCCCN", "inactive"],
  ["CCCCCCCCCCCC(=O)OCC(C)OC(=O)CCCCC(=O)O (stereo not given)", "inactive"],
  ["CCCCCCCCCCOC(=O)c1ccccc1C(=O)OCCCCCCCC", "inactive"],
  ["OC/C=C/CO", "inactive"],
  ["CCCC1CCC(=O)CC1", "inactive"],
  ["CCCCOC(=O)CO", "inactive"],
  ["CCCCOC(=O)CC", "inactive"]
]}
